Hello, the source for this data is patent US11548870B2, in case you need it.

Recorded DC50 by entry
Target: Ikaros (Homo sapiens, UniProt Q13422)
Construct: fluorescently labelled antibodies against Helios and Ikaros; endogenous in cells; host or cells: Jurkat cells
Sequence (Q96SW2 whole entry partner): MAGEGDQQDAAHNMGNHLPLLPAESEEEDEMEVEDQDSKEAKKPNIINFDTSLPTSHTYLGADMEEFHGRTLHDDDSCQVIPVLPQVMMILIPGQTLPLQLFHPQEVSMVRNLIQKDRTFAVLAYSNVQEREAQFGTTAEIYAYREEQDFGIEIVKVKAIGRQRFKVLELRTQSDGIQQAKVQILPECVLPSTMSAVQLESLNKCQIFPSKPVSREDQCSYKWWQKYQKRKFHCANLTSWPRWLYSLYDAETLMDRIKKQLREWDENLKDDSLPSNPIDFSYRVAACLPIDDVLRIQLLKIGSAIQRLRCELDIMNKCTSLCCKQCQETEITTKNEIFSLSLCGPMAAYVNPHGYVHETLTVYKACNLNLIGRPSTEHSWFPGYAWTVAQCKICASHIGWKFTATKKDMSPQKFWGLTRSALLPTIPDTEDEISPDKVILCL
Sequence (Q16531 whole entry partner): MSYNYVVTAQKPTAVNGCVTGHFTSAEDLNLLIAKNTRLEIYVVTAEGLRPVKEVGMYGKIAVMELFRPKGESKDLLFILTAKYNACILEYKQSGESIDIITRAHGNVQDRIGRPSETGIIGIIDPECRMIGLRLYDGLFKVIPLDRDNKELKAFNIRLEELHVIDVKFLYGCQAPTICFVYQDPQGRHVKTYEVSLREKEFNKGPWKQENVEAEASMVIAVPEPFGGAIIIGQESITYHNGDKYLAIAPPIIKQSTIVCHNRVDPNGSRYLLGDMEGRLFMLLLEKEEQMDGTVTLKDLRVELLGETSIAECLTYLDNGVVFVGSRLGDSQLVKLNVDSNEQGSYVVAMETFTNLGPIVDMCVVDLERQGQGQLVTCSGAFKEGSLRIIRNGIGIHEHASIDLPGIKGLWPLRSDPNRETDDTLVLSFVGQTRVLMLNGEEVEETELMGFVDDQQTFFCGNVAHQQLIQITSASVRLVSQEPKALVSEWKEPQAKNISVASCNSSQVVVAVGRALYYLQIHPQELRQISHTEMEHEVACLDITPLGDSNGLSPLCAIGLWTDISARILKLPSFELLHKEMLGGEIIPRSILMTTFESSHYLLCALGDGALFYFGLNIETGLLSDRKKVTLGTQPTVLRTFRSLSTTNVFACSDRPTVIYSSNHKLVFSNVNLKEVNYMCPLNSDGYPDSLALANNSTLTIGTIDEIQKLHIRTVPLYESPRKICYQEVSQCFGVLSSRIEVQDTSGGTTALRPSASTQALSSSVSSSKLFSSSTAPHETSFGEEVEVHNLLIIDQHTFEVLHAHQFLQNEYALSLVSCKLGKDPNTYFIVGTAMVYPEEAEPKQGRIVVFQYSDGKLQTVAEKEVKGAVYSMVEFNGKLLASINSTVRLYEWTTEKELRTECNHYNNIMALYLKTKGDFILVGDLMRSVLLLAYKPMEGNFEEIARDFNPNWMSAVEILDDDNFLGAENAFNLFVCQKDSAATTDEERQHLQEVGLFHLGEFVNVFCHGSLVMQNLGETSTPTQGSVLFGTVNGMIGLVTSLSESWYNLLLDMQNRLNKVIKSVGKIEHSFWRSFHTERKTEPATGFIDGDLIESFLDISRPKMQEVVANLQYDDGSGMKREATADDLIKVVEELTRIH
Sequence (Q13422 whole entry): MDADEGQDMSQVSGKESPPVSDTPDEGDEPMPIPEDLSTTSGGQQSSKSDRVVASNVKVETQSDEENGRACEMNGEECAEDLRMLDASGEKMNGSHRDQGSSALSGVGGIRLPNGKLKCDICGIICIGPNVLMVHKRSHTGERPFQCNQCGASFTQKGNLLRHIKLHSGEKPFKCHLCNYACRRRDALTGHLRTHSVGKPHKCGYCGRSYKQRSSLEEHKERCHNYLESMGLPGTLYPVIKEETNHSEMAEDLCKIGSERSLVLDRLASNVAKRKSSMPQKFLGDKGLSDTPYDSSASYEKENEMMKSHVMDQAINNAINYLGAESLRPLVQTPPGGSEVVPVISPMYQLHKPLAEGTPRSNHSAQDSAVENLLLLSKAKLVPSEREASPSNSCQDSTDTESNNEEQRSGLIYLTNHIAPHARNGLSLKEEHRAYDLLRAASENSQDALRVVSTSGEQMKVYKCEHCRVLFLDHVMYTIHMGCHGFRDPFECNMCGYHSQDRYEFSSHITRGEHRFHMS
Experiment: Helios Cellular Degradation Assay, Ikaros readout (flow cytometry, Ikaros-Alexa488 antibody staining, 72 h)
Format: cell-based
Settings: Jurkat cells, 72 h incubation, flow cytometry
reported.metric: DC50

compound	target.or.system	result
O=C1CCC(N2Cc3cc(-c4cc(CNCc5csc(-c6ccccc6)n5)ccn4)ccc3C2=O)C(=O)N1 (centres unmarked) [Example 110]	Ikaros (Homo sapiens, UniProt Q13422)	> 10 µM
C[C@@H]1CCCN1Cc1ccnc(-c2ccc3c(c2)CN(C2CCC(=O)NC2=O)C3=O)c1 (some centres unmarked) [Example 125]	Ikaros (Homo sapiens, UniProt Q13422)	> 10 µM
O=C1CCC(N2Cc3cc(-c4cc(CN5CCC6CCCC65)ccn4)ccc3C2=O)C(=O)N1 (centres unmarked) [Example 60]	Ikaros (Homo sapiens, UniProt Q13422)	> 10 µM
O=C1CCC(N2Cc3cc(-c4cc(CN5CCC5)ccn4)ccc3C2=O)C(=O)N1 (centres unmarked) [Example 165]	Ikaros (Homo sapiens, UniProt Q13422)	> 10 µM
C[C@H]1CCCN(Cc2ccnc(-c3ccc4c(c3)CN(C3CCC(=O)NC3=O)C4=O)c2)C1 (some centres unmarked) [Example 73]	Ikaros (Homo sapiens, UniProt Q13422)	> 10 µM
NC(=O)C1CCN(Cc2ccnc(-c3ccc4c(c3)CN(C3CCC(=O)NC3=O)C4=O)c2)CC1 (centres unmarked) [Example 41]	Ikaros (Homo sapiens, UniProt Q13422)	> 10 µM
C[C@H]1CCCN1Cc1ccnc(-c2ccc3c(c2)CN(C2CCC(=O)NC2=O)C3=O)c1 (some centres unmarked) [Example 69]	Ikaros (Homo sapiens, UniProt Q13422)	> 10 µM
O=C1CCC(N2Cc3cc(-c4cc(CN5CCC(n6c(=O)[nH]c7ccccc76)CC5)ccn4)ccc3C2=O)C(=O)N1 (centres unmarked) [Example 11]	Ikaros (Homo sapiens, UniProt Q13422)	> 10 µM
